target: Proto-oncogene tyrosine-protein kinase Src (Homo sapiens) (UniProt P12931); assay: Inhibition of Src at 10 uM
Sequence (P12931 2-536 limits assumed): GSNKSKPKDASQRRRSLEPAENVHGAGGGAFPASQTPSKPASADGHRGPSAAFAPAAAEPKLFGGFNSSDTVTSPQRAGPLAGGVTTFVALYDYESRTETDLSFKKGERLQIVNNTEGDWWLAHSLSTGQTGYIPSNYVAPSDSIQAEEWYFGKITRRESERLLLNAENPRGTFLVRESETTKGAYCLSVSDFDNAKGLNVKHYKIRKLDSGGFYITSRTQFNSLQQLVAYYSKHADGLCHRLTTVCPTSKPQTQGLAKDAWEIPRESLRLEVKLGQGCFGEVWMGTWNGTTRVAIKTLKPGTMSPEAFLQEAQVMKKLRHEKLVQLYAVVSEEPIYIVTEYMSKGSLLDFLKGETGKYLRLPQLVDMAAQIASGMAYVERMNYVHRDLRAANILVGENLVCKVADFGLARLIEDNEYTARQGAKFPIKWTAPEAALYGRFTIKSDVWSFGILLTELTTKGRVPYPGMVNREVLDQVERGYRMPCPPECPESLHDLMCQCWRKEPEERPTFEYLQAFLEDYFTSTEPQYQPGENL
Known inhibition of a selection of molecules
attribute-measured: inhibition (%)

> print(dat)
                    smiles.str  attribute.measured  relation.sign  readout.number
 1       O=C(CCl)c1cc(Cl)sc1Cl          inhibition              =              12
 2     O=C(CBr)c1cc(Br)c(Br)s1          inhibition              =              76
 3   O=C(CCl)c1csc(C(=O)CCl)c1          inhibition              =              94
 4       O=C(CBr)c1scc(Br)c1Br          inhibition              =              66
 5         O=C(CCl)c1ccc(Br)s1          inhibition              =              19
 6           O=C(CCl)c1cscc1Cl          inhibition              =              24
 7         O=C(CCl)c1ccc(Cl)s1          inhibition              <              10
 8   O=C(CCl)c1c(Br)sc(Cl)c1Cl          inhibition              =              26
 9  Cc1sc(C(=O)CCl)cc1C(=O)CCl          inhibition              =              54
10     CC(=O)c1csc(C(=O)CCl)c1          inhibition              =              22
11     O=C(CCl)c1cc(Br)c(Br)s1          inhibition              =              69

----------
molecular target: Epidermal growth factor receptor (Homo sapiens); test: Inhibition of EGFR in human A431 at 10 uM by liquid scintillation counting in presence of [33gammaP]ATP
attribute-measured: inhibition (%)

> print(dat)
                  smiles.str  attribute.measured  relation.sign  readout.number
1  O=C(CCl)c1csc(C(=O)CCl)c1          inhibition              =              16
2      O=C(CCl)c1cc(Cl)sc1Cl          inhibition              <              10
3    O=C(CBr)c1cc(Br)c(Br)s1          inhibition              <              10
4      O=C(CBr)c1scc(Br)c1Br          inhibition              =              17

----------
target: D(3) dopamine receptor (Homo sapiens); assay: Displacement of [3H]spiperone from human recombinant dopamine D3 receptor expressed in CHO cells at 10 uM; format: cell-based
attribute-measured: inhibition

> print(dat)
                smiles.str  attribute.measured  result
1      O=C(CCl)c1ccc(Br)s1          inhibition   < 10%
2  O=C(CBr)c1cc(Br)c(Br)s1          inhibition   < 10%
3    O=C(CCl)c1scc(Br)c1Br          inhibition     12%
4      O=C(CCl)c1ccc(Cl)s1          inhibition   < 10%

Provenance of the data: ChEMBL document CHEMBL1152606
